assay: Plasma pharmacokinetics in mice; conditions: male, CD1, mouse, po, 20 mg/kg
readout_type: bioavailability (%)
Answers are plain numbers, in %.

Query :: Please give the measured bioavailability for this molecule: COc1cccc2c1nc(C(F)F)n2-c1nc(N2CCOCC2)nc(N2CCN(S(=O)(=O)CCN(C)C)CC2)n1
Result :: 33.4

###

So I've got a bunch of compounds here, and I need their remaining activity at 1 µM values.
molecular target: panel of 442 kinases (Homo sapiens); construct: purchased Ambit Biosciences (scanMAXX KINOMEscan); assay: biochemical; format: binding; conditions: kinase MAPKAPK2; 1 µM; read-out: % of control at 1 µM
Give bare numbers, in %.

Take a look at these entries with their results.
input_smiles | remaining activity at 1 µM (%)
COc1ncc(-c2ccc3nccc(-c4ccnnc4)c3c2)cc1NS(=O)(=O)c1ccc(F)cc1F | 100
Nc1cc(C(F)(F)F)c(-c2cc(N3CCOCC3)nc(N3CCOCC3)n2)cn1 | 100
Cn1c(=O)n(-c2ccc(C(C)(C)C#N)cc2)c2c3cc(-c4cnc5ccccc5c4)ccc3ncc21 | 92

In the following, a different compound is considered.
Query :: Value wanted: remaining activity at 1 µM (panel of 442 kinases (Homo sapiens)) of entry FC(F)c1nc2ccccc2n1-c1nc(N2CCOCC2)nc(N2CCOCC2)n1
Result :: 99

###

Target: panel of 442 kinases (Homo sapiens)
Construct: purchased Ambit Biosciences (scanMAXX KINOMEscan)
Sequence (O14976 1-1311): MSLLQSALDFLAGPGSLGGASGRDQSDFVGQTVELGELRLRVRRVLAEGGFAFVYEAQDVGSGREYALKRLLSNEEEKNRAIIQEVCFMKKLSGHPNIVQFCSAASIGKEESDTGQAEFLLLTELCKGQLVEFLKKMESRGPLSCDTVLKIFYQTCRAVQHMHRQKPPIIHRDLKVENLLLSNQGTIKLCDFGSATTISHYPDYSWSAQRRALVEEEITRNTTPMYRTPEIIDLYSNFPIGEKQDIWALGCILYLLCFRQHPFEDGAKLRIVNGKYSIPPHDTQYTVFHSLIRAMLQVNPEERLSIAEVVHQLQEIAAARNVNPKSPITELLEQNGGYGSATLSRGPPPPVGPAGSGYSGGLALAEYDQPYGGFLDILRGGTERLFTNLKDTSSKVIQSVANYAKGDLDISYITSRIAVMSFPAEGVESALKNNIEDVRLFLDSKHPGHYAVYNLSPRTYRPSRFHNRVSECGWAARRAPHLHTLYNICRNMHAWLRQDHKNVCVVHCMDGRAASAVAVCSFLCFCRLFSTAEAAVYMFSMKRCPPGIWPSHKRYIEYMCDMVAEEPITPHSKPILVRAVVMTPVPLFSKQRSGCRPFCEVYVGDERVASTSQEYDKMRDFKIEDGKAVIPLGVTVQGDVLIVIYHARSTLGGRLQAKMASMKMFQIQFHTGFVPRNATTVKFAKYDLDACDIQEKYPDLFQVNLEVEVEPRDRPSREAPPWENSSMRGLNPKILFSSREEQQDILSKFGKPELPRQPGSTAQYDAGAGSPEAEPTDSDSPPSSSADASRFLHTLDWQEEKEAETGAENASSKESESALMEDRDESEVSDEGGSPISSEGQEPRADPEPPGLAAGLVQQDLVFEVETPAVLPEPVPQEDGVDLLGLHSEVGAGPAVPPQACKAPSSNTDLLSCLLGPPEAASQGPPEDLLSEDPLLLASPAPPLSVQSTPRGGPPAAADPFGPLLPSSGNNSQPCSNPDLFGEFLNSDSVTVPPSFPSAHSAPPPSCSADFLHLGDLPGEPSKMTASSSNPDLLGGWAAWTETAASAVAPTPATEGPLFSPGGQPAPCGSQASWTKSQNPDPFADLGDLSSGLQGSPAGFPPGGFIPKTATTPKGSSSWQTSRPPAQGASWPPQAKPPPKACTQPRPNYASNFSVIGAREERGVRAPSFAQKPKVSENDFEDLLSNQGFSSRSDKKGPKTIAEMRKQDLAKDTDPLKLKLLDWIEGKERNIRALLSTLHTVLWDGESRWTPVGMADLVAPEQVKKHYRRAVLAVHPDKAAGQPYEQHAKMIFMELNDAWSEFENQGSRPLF
Assay: biochemical
Type: binding
Conditions: kinase GAK; 1 µM; read-out: % of control at 1 µM
readout_type: remaining activity at 1 µM (%)
One number for each entry, in %.

Take a look at these entries with their results.
input_smiles | remaining activity at 1 µM, %
Nc1cc(C(F)(F)F)c(-c2cc(N3CCOCC3)nc(N3CCOCC3)n2)cn1 | 100
FC(F)c1nc2ccccc2n1-c1nc(N2CCOCC2)nc(N2CCOCC2)n1 | 78
Cn1c(=O)n(-c2ccc(C(C)(C)C#N)cc2)c2c3cc(-c4cnc5ccccc5c4)ccc3ncc21 | 60

In the following, a different compound is considered.
Query :: Please give the measured remaining activity at 1 µM for this compound: COc1ncc(-c2ccc3nccc(-c4ccnnc4)c3c2)cc1NS(=O)(=O)c1ccc(F)cc1F
Result :: 61

###

biological target: panel of 442 kinases (Homo sapiens); construct: purchased Ambit Biosciences (scanMAXX KINOMEscan); assay: biochemical; type: binding; conditions: kinase YES; 1 µM; read-out: YES (% of control at 1 µM)
So I've got a bunch of molecules here, and I need their remaining activity at 1 µM values.
Hi, when you answer, please include the unit after the number. Thanks!

Take a look at these entries with their results.
molecule | target_desc | observed_measurement
COc1ncc(-c2ccc3nccc(-c4ccnnc4)c3c2)cc1NS(=O)(=O)c1ccc(F)cc1F [Omipalisib] | panel of 442 kinases (Homo sapiens) | 100%
FC(F)c1nc2ccccc2n1-c1nc(N2CCOCC2)nc(N2CCOCC2)n1 [ZSTK474] | panel of 442 kinases (Homo sapiens) | 100%

Please supply remaining activity at 1 µM for each of the following items, keeping them in order.
1. Nc1cc(C(F)(F)F)c(-c2cc(N3CCOCC3)nc(N3CCOCC3)n2)cn1 [Buparlisib]
2. Cn1c(=O)n(-c2ccc(C(C)(C)C#N)cc2)c2c3cc(-c4cnc5ccccc5c4)ccc3ncc21 [Dactolisib]

Result ::
1: 100%; 2: 100%

###

target: panel of 442 kinases (Homo sapiens); construct: purchased Ambit Biosciences (scanMAXX KINOMEscan); test: biochemical; assay type: binding; details: kinase PHKG1; 1 µM; read-out: % of control at 1 µM
So I've got a bunch of molecules here, and I need their remaining activity at 1 µM values.
One number for each entry, in %.

Take a look at these entries with their results.
input_smiles | unit_name | remaining activity at 1 µM
COc1ncc(-c2ccc3nccc(-c4ccnnc4)c3c2)cc1NS(=O)(=O)c1ccc(F)cc1F | % | 86
Cn1c(=O)n(-c2ccc(C(C)(C)C#N)cc2)c2c3cc(-c4cnc5ccccc5c4)ccc3ncc21 | % | 100
FC(F)c1nc2ccccc2n1-c1nc(N2CCOCC2)nc(N2CCOCC2)n1 | % | 100

In the following, a different molecule is considered.
Query :: Please give the measured remaining activity at 1 µM for this molecule: Nc1cc(C(F)(F)F)c(-c2cc(N3CCOCC3)nc(N3CCOCC3)n2)cn1
Result :: 99

###

molecular target: panel of 442 kinases (Homo sapiens, UniProt P31749); construct: purchased Ambit Biosciences (scanMAXX KINOMEscan); assay: biochemical; type: binding; settings: AKT1; 1 µM; read-out: % of control at 1 µM
Sequence (P31749 whole entry): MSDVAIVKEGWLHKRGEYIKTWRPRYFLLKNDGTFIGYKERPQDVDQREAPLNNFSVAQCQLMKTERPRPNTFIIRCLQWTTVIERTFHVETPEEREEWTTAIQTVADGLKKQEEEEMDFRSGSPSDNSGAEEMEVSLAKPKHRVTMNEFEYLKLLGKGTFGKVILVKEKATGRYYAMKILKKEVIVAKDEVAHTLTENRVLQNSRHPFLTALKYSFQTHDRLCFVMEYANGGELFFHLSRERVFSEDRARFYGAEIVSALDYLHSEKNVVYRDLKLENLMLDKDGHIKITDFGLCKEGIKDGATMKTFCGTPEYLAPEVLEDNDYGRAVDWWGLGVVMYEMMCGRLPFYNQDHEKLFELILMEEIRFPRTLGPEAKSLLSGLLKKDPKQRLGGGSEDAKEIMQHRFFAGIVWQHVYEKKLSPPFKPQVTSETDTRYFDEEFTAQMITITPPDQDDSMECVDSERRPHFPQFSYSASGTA
So I've got a bunch of compounds here, and I need their remaining activity at 1 µM values.
Numbers only, in %.

input_smiles | unit_name | observed_measurement
Nc1cc(C(F)(F)F)c(-c2cc(N3CCOCC3)nc(N3CCOCC3)n2)cn1 | % | 94
FC(F)c1nc2ccccc2n1-c1nc(N2CCOCC2)nc(N2CCOCC2)n1 | % | 100
COc1ncc(-c2ccc3nccc(-c4ccnnc4)c3c2)cc1NS(=O)(=O)c1ccc(F)cc1F | % | 59

Query :: Please give the measured remaining activity at 1 µM for this compound: Cn1c(=O)n(-c2ccc(C(C)(C)C#N)cc2)c2c3cc(-c4cnc5ccccc5c4)ccc3ncc21
Result :: 100

###

target: panel of 442 kinases (Homo sapiens); construct: purchased Ambit Biosciences (scanMAXX KINOMEscan); experiment: biochemical; type: binding; details: kinase TAOK1; 1 µM; read-out: TAOK1 (% of control at 1 µM)
readout_type: remaining activity at 1 µM (%)
Answers are plain numbers, in %.

Take a look at these entries with their results.
compound | target_desc | observed_measurement
FC(F)c1nc2ccccc2n1-c1nc(N2CCOCC2)nc(N2CCOCC2)n1 [ZSTK474] | panel of 442 kinases (Homo sapiens) | 74
COc1ncc(-c2ccc3nccc(-c4ccnnc4)c3c2)cc1NS(=O)(=O)c1ccc(F)cc1F [Omipalisib] | panel of 442 kinases (Homo sapiens) | 100
Nc1cc(C(F)(F)F)c(-c2cc(N3CCOCC3)nc(N3CCOCC3)n2)cn1 [Buparlisib] | panel of 442 kinases (Homo sapiens) | 86

In the following, a different compound is considered.
Query :: Please give the measured remaining activity at 1 µM for this compound: Cn1c(=O)n(-c2ccc(C(C)(C)C#N)cc2)c2c3cc(-c4cnc5ccccc5c4)ccc3ncc21 [Dactolisib]
Result :: 70
